target: UniProtKB P01375; test: TNFα FP Competitive Binding Assay; settings: Table BP; read-out: TNF IC50
pIC50: −log10 of the molar value.
measure: pIC50

Lookup result for c1ccc2c(c1)COCC21COCc2nc3ccc(-c4cnc(N5CCOCC5)nc4)nc3n21 (stereo not shown) ; measured pIC50: 5.00 to 6.00

* * *

target: TNFα trimer (Homo sapiens); test: TNFα FP Competitive Binding Assay; conditions: TNFα FP competitive binding assay; class symbols A/B/C; read-out: TNF IC50
Sequence (P01375 77-233 limits assumed): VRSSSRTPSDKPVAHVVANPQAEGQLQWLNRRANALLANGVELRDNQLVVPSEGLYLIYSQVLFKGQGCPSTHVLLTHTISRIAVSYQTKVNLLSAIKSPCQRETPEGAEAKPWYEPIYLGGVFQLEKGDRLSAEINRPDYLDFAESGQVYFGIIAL
pIC50: −log10 of the molar value.
Exercise: state measured pIC50 for each of the compounds provided.

Lookup result for C[C@@H]1CN(c2ncc(-c3ccc4nc5n(c4n3)C3(COC5)COc4ccccc43)cn2)CCN1C(=O)COC(C)(C)C (some centres unmarked) [BG.6] ; measured pIC50: > 6.00

Lookup result for O=S1(=O)CCN(c2ncc(-c3ccc4nc5n(c4c3)[C@@H](c3ccccc3)COC5)cn2)CC1 [W.3] ; measured pIC50: > 6.00

Lookup result for COc1ccccc1[C@H]1CCc2nc3ccc(-c4cnc(N5CCN6C(=O)NC[C@@H]6C5)nc4)nc3n21 [AO.1] ; measured pIC50: > 6.00

Lookup result for OC1CC(Nc2ncc(-c3ccc4nc5n(c4n3)C3(CCOc4ccccc43)COC5)cn2)C1 (centres unmarked) [BB.6] ; measured pIC50: 5.00 to 6.00

Lookup result for OC1CCN(c2ncc(-c3ccc4nc5n(c4n3)C(c3ccccc3)COC5)cn2)CC1(F)F (centres unmarked) [AZ.1] ; measured pIC50: > 6.00

Lookup result for O[C@H]1CC[C@@H](Oc2cc(-c3ccc4nc5n(c4n3)[C@@H](c3ccccc3)CC5)ccn2)CC1 [AR.1] ; measured pIC50: 5.00 to 6.00

Lookup result for c1ccc(C2COCc3nc4ccc(-c5cnc(NC6CC6)nc5)cc4n32)cc1 (centres unmarked) [T.24] ; measured pIC50: 5.00 to 6.00

Lookup result for COCCn1ccc(-c2ccc3nc4n(c3n2)[C@@H](c2ccccc2)CC4)cc1=O [AW.2] ; measured pIC50: 5.00 to 6.00

* * *

Exercise: state measured pIC50 for each of the molecules provided.
target: TNFα trimer (Homo sapiens); test: TNFα FP Competitive Binding Assay; details: fluorescence polarization competition; 20 nM TNFα trimer, 1 nM OregonGreen488 probe; read-out: TNF IC50 (TNFα FP binding assay IC50)
pIC50: −log10 of the molar value.

Lookup result for CC(=O)N1CCN(c2ncc(-c3ccc4nc5n(c4n3)[C@@H](c3cccc(CO)c3)CC5)cn2)C[C@H]1C ; measured pIC50: > 6.00

Lookup result for OC1CC2(CCN(c3ncc(-c4ccc5nc6n(c5c4)[C@@H](c4ccccc4)COC6)cn3)C2)C1 (stereo partly shown) ; measured pIC50: > 6.00

Lookup result for OC1(c2cccc(Cl)c2)CCCCc2nc3ccc(-c4cnc(N5CCOCC5)nc4)cn3c21 (stereo not shown) ; measured pIC50: 5.00 to 6.00

Lookup result for O=C1NC[C@@H]2CN(c3ncc(-c4ccc5nc6n(c5c4)[C@@H](c4ccccc4)COC6)cn3)CCN12 ; measured pIC50: > 6.00

Lookup result for CS(=O)(=O)NCc1ccc(-c2ccc3nc4n(c3c2)C(c2ccccc2)CC4)cc1 (stereo not shown) ; measured pIC50: > 6.00

Lookup result for c1ccc([C@@H]2COCc3nc4ccc(-c5cnc(N6CCOCC6)nc5)cc4n32)cc1 ; measured pIC50: 4.00 to 5.00

Lookup result for CC1(C)C=C(c2ccc3nc4n(c3n2)[C@@H](c2ccccc2)CC4)CN1 ; measured pIC50: 4.00 to 5.00

Lookup result for Cc1cncc(-c2ccc3nc4n(c3c2)C(c2ccccc2)CC4)c1 (stereo not shown) ; measured pIC50: 5.00 to 6.00

Lookup result for COc1ccccc1C1CCOc2nc3ccc(-c4ccnc(O[C@H]5CC[C@H](O)CC5)c4)cn3c21 (stereo partly shown) ; measured pIC50: > 6.00

Lookup result for OC1(c2ccc(F)cc2)CCCc2nc3ccc(-c4cnc(N5CCOCC5)nc4)cn3c21 (stereo not shown) ; measured pIC50: 5.00 to 6.00

Lookup result for CC(C)(O)c1ncc(-c2ccc3nc4n(c3c2)[C@@H](c2ccccc2OC(F)F)COC4)cn1 ; measured pIC50: > 6.00

Lookup result for O=C1CN(c2ncc(-c3ccc4nc5n(c4n3)C(c3cccc(F)c3)CC5)cn2)CCN1 (stereo not shown) ; measured pIC50: > 6.00

Lookup result for c1ccc([C@H]2CCc3nc4ccc(-c5cnc(N6CCOCC6)nc5)cc4n32)cc1 ; measured pIC50: > 6.00

Lookup result for OC1CCN(c2ncc(-c3nc4c(cc3F)nc3n4[C@@H](c4ccccc4)CC3)cn2)CC1 ; measured pIC50: > 6.00

Lookup result for O=C(O)C1CN(c2ncc(-c3ccc4nc5n(c4c3)C(c3ccccc3)CCC5)cn2)C1 (stereo not shown) ; measured pIC50: 4.00 to 5.00

Lookup result for Nc1ncc(-c2ccc3nc4n(c3c2)C(c2ccccc2)CC4)cn1 (stereo not shown) ; measured pIC50: 5.00 to 6.00

Lookup result for c1ccc([C@H]2COCc3nc4ccc(-c5cnc(N6CC(N7CCOCC7)C6)nc5)cc4n32)cc1 ; measured pIC50: 4.00 to 5.00

Lookup result for COc1ccccc1C1CCc2nc3ccc(-c4cnc(C(C)(C)O)nc4)cc3n21 (stereo not shown) ; measured pIC50: > 6.00

Lookup result for O=C1CN(c2ncc(-c3ccc4nc5n(c4n3)C(c3ccccc3)CC5)cn2)CCN1 (stereo not shown) ; measured pIC50: > 6.00

Lookup result for CC(C)(O)c1ncc(-c2ccc3nc4n(c3n2)C(c2ccccc2)CCC4)cn1 (stereo not shown) ; measured pIC50: > 6.00

Lookup result for c1ccc([C@H]2COCc3nc4ccc(-c5cnc(N6CCCOCC6)nc5)cc4n32)cc1 ; measured pIC50: > 6.00

Lookup result for OC1(c2cccc(F)c2)CCCc2nc3ccc(-c4cnc(N5CCOCC5)nc4)cn3c21 (stereo not shown) ; measured pIC50: 5.00 to 6.00

Lookup result for c1ccc([C@H]2COCc3nc4ccc(-c5cnc(N6CCn7cnnc7C6)nc5)cc4n32)cc1 ; measured pIC50: > 6.00

Lookup result for OCCC1(O)CCN(c2ncc(-c3ccc4nc5n(c4c3)[C@@H](c3ccccc3)COC5)cn2)CC1 ; measured pIC50: > 6.00

Lookup result for O=C1NCC2CN(c3ncc(-c4ccc5nc6n(c5n4)C(c4ccccc4)COC6)cn3)CCN12 (stereo in doubt) ; measured pIC50: > 6.00

Lookup result for O=C1OCC2CN(c3ncc(-c4ccc5nc6n(c5c4)[C@@H](c4ccccc4)COC6)cn3)CCN12 (stereo partly shown) ; measured pIC50: 5.00 to 6.00

Lookup result for COc1cc(OC)cc(C2(O)CCCCc3nc4ccc(-c5cnc(N6CCOCC6)nc5)cn4c32)c1 (stereo not shown) ; measured pIC50: 4.00 to 5.00

Lookup result for C[C@@H]1CN(c2ncc(-c3ccc4nc5n(c4n3)[C@@H](c3ccccc3)CC5)cn2)CCN1C(=O)CO ; measured pIC50: > 6.00

Lookup result for O=C1CN(c2ncc(-c3cc4c(cn3)nc3n4C(c4ccccc4)CC3)cn2)CCN1 (stereo not shown) ; measured pIC50: 4.00 to 5.00

Lookup result for COc1ccccc1[C@H]1CCc2nc3ccc(-c4cnc(C(C)(C)O)nc4)cn3c21 ; measured pIC50: > 6.00

Lookup result for O=C1NCC2CN(c3ncc(-c4ccc5nc6n(c5c4)[C@@H](c4ccccc4)COC6)cn3)CCN12 (stereo partly shown) ; measured pIC50: > 6.00

Lookup result for COc1cncc(-c2ccc3nc4n(c3c2)C(c2ccccc2)CC4)c1 (stereo not shown) ; measured pIC50: 5.00 to 6.00

Lookup result for Cc1ccc(C)c(C2CCc3nc4ccc(-c5cnc(N6CCNC(=O)C6)nc5)nc4n32)c1 (stereo not shown) ; measured pIC50: > 6.00

Lookup result for Nc1ccc(-c2ccc3nc4n(c3c2)C(c2ccccc2)CC4)cn1 (stereo not shown) ; measured pIC50: 4.00 to 5.00
